# Test system: D54 ERlucT glycosylation luciferase reporter, luminescence, 24 h
# RUN_DESCRIPTION: N-linked glycosylation inhibitors, luciferase reporter, dose response, D54 ERlucT cells, luminescence, cherry-picks (AID 624491);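 note: signal gain reflects blocked N-linked glycosylation of a luciferase reporter; actives raise luciferase signal so AC26 marks activators of the reporter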
MEASUREMENT_KIND: AC26

Take a look at these entries with their results.
# MOLECULE, AC26
data = [
    ("COc1cc2nc(N(C)C)nc(N)c2cc1OC", "3660 nM"),
    ("C[C@@]12C(=O)Nc3cc(Cl)ccc3C(=O)N1[C@H]1c3ccccc3OC[C@@H]1[C@@H]2c1ccccc1", "397 nM"),
    ("COc1cc2c(cc1OC)C(c1ccccc1)N(C(=O)c1ccco1)CC2 (centres undefined)", "315 nM"),
]

query: For the molecule CC(NC(=O)c1ccc2ccccc2n1)c1ccc(S(N)(=O)=O)cc1 (centres undefined) , give its reported AC26.
result: 4020 nM

All figures here come from PubChem BioAssay AID624491.
